Assignment: determine reported cytotoxicity at 10 µM for the given compounds.
# EXPERIMENT_NOTES: Toxicity liver stage against HepG2, at 10uM
# Assay type: cell-based
# Set-up: test concentration 10 uM, cell line HepG2-A16-CD81EGFP
# MEASUREMENT_SETUP: human, HepG2-A16-CD81EGFP cells; read-out: INHIBITION
Remember to quote the unit after the number.

Which value of cytotoxicity at 10 µM has been reported for CCc1nc(C2CCCN2Cc2nnc(Cc3ccccc3)o2)no1 (configuration not stated) in the records?
-0.313%

Which cytotoxicity at 10 µM value is on record for COc1cc(CN2CCC(O)(c3ccc(C)cn3)CC2)cc(Cl)c1OC ?
-132%

// lookup cytotoxicity at 10 µM for CCc1noc(CN(C)Cc2ccc(N3CCCCC3)cc2)n1
-5.88%

Which value of cytotoxicity at 10 µM has been reported for CN(Cc1ccco1)C1CCC12CCN(C(=O)C1CCOCC1)CC2 (configuration not stated) in the records?
-2.92%

What value of cytotoxicity at 10 µM has been reported for the following compound? O=C(CN1CCCC1c1nc(-c2ccccc2)no1)N1CCOCC1 (configuration not stated)
4.17%

I would be grateful if you could share the reported cytotoxicity at 10 µM for Cc1ocnc1C(=O)N(C)[C@@H]1CC[C@@H](n2ccnc2C)[C@@H]1O .
0.642%

Which cytotoxicity at 10 µM is reported for this compound? CCOCc1ncn2c1CN(S(=O)(=O)c1cccs1)CC2
0.719%

// cytotoxicity at 10 µM lookup, key: Cc1cc(C2CCCN2C(=O)NCc2cccnc2OC(C)C)on1 (configuration not stated)
-9.63%

Query (compound): CCNC(=O)N(C)C1CCN(Cc2ncc(C)c(OC)c2C)CC1 ; field requested: cytotoxicity at 10 µM
-0.514%

What cytotoxicity at 10 µM value was documented for this compound, Cc1csc(CNc2cnn(CC(C)C)c2)n1 ?
-6.63%

Endpoint output: cytotoxicity at 10 µM of Cc1nc(CCC(=O)NCC(N)=O)cc(C2CCNCC2)n1 . Value?
-3.03%

Quick one: cytotoxicity at 10 µM for CCC(C)NC(=O)Cc1c(C)nc2c(c1C)c(=O)[nH]n2C (configuration not stated) ?
-11.4%
